- Experimental protocol: Inhibition of beta-lactamase VIM4 (unknown origin) expressed in Escherichia coli BL21(DE3) using imipenem as substrate by measuring substrate hydrolysis at 100 uM by spectrophotometric analysis
Activity calls are given as the source filed them. The rule behind the calls is not given here.
Assay metric: inhibition

Answered cases to consult:
smiles_structure=S=c1[nH]nc(Cc2ccccc2)n1/N=C/c1ccc(OCc2ccccc2)cc1 test_result=inactive
smiles_structure=Fc1cccc(-c2n[nH]c(=S)n2/N=C/c2ccc(OCc3ccccc3)cc2)c1 test_result=inactive
smiles_structure=Oc1ccc(/C=N/n2c(CC(c3ccccc3)c3ccccc3)n[nH]c2=S)c(O)c1 test_result=inactive
smiles_structure=S=c1[nH]nc(CC(c2ccccc2)c2ccccc2)n1/N=C/c1ccc(OCc2ccccc2)cc1 test_result=inactive
smiles_structure=Cc1ccccc1-c1n[nH]c(=S)n1/N=C/c1ccccc1O test_result=38%

Q: Entry S=c1[nH]nc(-c2ccc(-c3ccccc3)cc2)n1/N=C/c1ccc(OCc2ccccc2)cc1 : reported inhibition = ?
A: inactive

Q: Entry O=C(O)c1ccccc1/C=N/n1c(-c2ccccc2-c2ccccc2)n[nH]c1=S : reported inhibition = ?
A: 49%

Q: Entry Oc1ccc(/C=N/n2c(C(c3ccccc3)c3ccccc3)n[nH]c2=S)c(O)c1 : reported inhibition = ?
A: 50%

Q: Entry S=c1[nH]nc(C(c2ccccc2)c2ccccc2)n1/N=C/c1ccc(OCc2ccccc2)cc1 : reported inhibition = ?
A: inactive

Q: Entry Cc1ccccc1-c1n[nH]c(=S)n1/N=C/c1ccc(C(=O)O)cc1 : reported inhibition = ?
A: 57%

* * *

- Experimental protocol: Inhibition of beta-lactamase CphA (unknown origin) expressed in Escherichia coli BL21(DE3) using imipenem as substrate by measuring substrate hydrolysis at 100 uM by spectrophotometric analysis
Calls of active or inactive are those of the source. No cut-off for these calls is given here.
Assay metric: inhibition

Answered cases to consult:
smiles_structure=O=C(O)c1ccccc1/C=N/n1c(COc2ccc3ccccc3c2)n[nH]c1=S test_result=42%
smiles_structure=O=C(O)c1ccccc1/C=N/n1c(-c2ccncc2)n[nH]c1=S test_result=inactive
smiles_structure=Cc1ccccc1-c1n[nH]c(=S)n1/N=C/c1ccc([N+](=O)[O-])cc1 test_result=59%
smiles_structure=S=c1[nH]nc(-c2cc(Cl)cc(Cl)c2)n1/N=C/c1ccc(OCc2ccccc2)cc1 test_result=inactive
smiles_structure=Oc1ccc(/C=N/n2c(-c3ccc(Cl)cc3)n[nH]c2=S)c(O)c1 test_result=inactive

Q: Entry Cc1ccccc1-c1n[nH]c(=S)n1/N=C/c1cnc[nH]1 : reported inhibition = ?
A: 36%

Q: Entry S=c1[nH]nc(CC(c2ccccc2)c2ccccc2)n1/N=C/c1ccc(OCc2ccccc2)cc1 : reported inhibition = ?
A: 30%

Q: Entry Oc1ccc(/C=N/n2c(Cc3ccccc3)n[nH]c2=S)c(O)c1 : reported inhibition = ?
A: inactive

Q: Entry O=C(O)c1ccccc1/C=N/n1c(Cc2ccccc2)n[nH]c1=S : reported inhibition = ?
A: 51%

Q: Entry Oc1ccc(/C=N/n2c(CC(c3ccccc3)c3ccccc3)n[nH]c2=S)c(O)c1 : reported inhibition = ?
A: inactive

Q: Entry O=C(O)c1ccccc1/C=N/n1c(CCc2ccccc2)n[nH]c1=S : reported inhibition = ?
A: 50%

Q: Entry S=c1[nH]nc(-c2ccccc2)n1/N=C/c1ccccc1 : reported inhibition = ?
A: inactive

Q: Entry Oc1ccc(/C=N/n2c(-c3cccc(Cl)c3)n[nH]c2=S)c(O)c1 : reported inhibition = ?
A: 35%

Q: Entry O=C(O)c1ccccc1/C=N/n1c(-c2cccc(C(F)(F)F)c2)n[nH]c1=S : reported inhibition = ?
A: 35%

Q: Entry O=C(O)c1ccccc1/C=N/n1c(-c2ccccn2)n[nH]c1=S : reported inhibition = ?
A: inactive

Q: Entry Oc1ccc(/C=N/n2c(COc3ccc4ccccc4c3)n[nH]c2=S)c(O)c1 : reported inhibition = ?
A: inactive

Q: Entry O=C(O)c1ccccc1/C=N/n1c(-c2cccc3ccccc23)n[nH]c1=S : reported inhibition = ?
A: 56%

src = ChEMBL document CHEMBL4706580
